- Test system: RARg:RXRa (NR concentration 270 nM, RXRa partner concentration 90 nM)
- protocol details: PBM binding z-score (relative to random genomic background probes); higher = stronger binding; sequences stand for … in GC…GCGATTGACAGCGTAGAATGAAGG
// label = criterion met if PBM binding z-score is not less than 3, otherwise criterion not met

| sequence code | answer label |
| --- | --- |
| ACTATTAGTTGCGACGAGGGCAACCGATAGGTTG | criterion not met |
| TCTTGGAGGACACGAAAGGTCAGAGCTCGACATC | criterion met |
| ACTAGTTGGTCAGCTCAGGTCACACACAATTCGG | criterion not met |
| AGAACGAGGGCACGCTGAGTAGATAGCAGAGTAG | criterion not met |
| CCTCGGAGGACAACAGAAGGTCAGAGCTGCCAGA | criterion met |
| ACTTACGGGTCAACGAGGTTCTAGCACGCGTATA | criterion met |
| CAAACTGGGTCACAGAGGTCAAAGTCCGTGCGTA | criterion met |
| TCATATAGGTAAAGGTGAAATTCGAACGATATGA | criterion not met |
| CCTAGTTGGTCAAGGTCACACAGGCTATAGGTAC | criterion met |
| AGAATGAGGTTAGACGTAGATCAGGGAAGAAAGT | criterion not met |
| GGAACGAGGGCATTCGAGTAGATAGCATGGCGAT | criterion not met |
| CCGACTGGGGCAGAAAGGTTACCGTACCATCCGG | criterion not met |
| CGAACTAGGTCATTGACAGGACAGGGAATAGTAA | criterion met |
| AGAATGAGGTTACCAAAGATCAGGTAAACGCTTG | criterion not met |
| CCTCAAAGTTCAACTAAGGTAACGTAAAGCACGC | criterion met |
| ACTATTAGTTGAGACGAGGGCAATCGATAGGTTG | criterion not met |
| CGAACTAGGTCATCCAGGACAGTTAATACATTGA | criterion met |
| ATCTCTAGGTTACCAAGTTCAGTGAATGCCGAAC | criterion not met |
| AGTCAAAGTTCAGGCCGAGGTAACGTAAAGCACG | criterion met |
| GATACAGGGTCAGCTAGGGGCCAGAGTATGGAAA | criterion met |
| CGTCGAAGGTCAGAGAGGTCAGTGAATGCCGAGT | criterion met |
| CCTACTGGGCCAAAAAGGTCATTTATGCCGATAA | criterion met |
| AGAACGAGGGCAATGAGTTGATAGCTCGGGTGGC | criterion not met |
| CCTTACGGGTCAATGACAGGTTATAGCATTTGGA | criterion met |
| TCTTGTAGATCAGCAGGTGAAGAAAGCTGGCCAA | criterion not met |
| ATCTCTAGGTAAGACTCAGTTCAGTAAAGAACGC | criterion not met |
| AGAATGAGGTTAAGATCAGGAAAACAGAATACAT | criterion not met |
| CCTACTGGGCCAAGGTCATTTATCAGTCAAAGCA | criterion met |
| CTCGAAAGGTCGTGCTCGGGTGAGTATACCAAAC | criterion met |
| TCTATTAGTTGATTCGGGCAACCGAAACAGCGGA | criterion not met |
| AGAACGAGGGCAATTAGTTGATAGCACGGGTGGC | criterion not met |
| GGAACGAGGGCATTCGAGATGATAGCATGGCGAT | criterion not met |
| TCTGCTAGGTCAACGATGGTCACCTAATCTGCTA | criterion met |
| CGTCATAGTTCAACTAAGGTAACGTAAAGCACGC | criterion met |
| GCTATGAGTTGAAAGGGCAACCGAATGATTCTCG | criterion not met |
| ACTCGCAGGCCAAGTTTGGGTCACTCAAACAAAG | criterion not met |
| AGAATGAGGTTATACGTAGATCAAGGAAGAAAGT | criterion not met |
| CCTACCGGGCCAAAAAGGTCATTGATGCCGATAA | criterion met |
| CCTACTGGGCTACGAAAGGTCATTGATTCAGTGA | criterion met |
| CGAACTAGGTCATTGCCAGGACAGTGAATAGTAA | criterion met |
| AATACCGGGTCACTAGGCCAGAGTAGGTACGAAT | criterion met |
| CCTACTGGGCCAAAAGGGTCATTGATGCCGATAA | criterion met |
| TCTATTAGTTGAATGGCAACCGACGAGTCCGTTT | criterion not met |
| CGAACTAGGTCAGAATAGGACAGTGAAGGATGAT | criterion not met |
| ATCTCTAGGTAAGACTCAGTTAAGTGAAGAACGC | criterion not met |
| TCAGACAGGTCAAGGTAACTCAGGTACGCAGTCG | criterion met |
| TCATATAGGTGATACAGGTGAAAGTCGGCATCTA | criterion not met |
| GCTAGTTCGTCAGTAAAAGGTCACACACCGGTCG | criterion met |
| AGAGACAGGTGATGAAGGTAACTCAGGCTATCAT | criterion not met |
| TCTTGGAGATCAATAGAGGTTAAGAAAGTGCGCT | criterion not met |
| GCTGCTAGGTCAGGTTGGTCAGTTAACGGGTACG | criterion not met |

* * *

- Test system: RXRa DBDmut IVT, anti-RXR (DBD mutation: RXRa K156A/R161A, NR concentration 90 nM)
- protocol details: PBM binding z-score (relative to random genomic background probes); higher = stronger binding; sequences stand for … in GC…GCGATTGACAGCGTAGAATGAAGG
// label = class 1 if PBM binding z-score is not less than -0.1, otherwise class 0

| sequence code | answer label |
| --- | --- |
| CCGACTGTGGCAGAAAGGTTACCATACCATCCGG | class 0 |
| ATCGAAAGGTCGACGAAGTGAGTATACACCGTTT | class 1 |
| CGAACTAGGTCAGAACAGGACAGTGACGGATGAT | class 1 |
| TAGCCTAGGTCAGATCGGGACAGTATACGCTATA | class 0 |
| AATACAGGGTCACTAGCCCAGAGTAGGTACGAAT | class 1 |
| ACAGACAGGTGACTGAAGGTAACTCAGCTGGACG | class 0 |
| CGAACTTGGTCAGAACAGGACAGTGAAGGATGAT | class 0 |
| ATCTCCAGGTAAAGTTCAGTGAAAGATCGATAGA | class 1 |
| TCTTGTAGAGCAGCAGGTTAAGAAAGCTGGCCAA | class 0 |
| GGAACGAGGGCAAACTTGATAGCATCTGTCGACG | class 1 |
| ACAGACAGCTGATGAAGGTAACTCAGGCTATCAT | class 0 |
| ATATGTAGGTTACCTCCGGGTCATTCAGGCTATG | class 1 |

* * *

Collected PBM binding z-score values appear next to each entry.
- Tested on: PXR:RXRa (NR concentration 270 nM, RXRa partner concentration 90 nM)
- protocol details: PBM binding z-score (relative to random genomic background probes); higher = stronger binding; sequences stand for … in GC…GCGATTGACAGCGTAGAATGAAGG

| sequence code | PBM binding z-score |
| --- | --- |
| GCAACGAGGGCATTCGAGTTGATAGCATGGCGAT | 3.66 |
| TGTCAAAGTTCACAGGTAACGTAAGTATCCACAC | 4.48 |
| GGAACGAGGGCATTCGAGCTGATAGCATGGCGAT | 0.26 |
| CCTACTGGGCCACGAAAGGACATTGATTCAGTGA | -0.024 |
| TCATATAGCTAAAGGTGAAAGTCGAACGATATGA | 0.662 |
| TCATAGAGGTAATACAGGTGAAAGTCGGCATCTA | 0.522 |
| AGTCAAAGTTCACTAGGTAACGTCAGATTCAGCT | 3.97 |
| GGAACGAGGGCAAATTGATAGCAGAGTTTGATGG | 0.625 |
| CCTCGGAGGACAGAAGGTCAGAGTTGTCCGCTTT | 1.77 |
| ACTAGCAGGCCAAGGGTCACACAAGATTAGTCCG | 3.56 |
| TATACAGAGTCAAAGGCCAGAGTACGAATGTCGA | 0.3 |
| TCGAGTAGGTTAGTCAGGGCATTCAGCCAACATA | 0.173 |
| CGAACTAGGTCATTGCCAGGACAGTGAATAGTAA | 1.4 |
| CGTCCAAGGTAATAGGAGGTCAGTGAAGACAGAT | 2.8 |
| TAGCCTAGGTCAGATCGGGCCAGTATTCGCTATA | 1.28 |
| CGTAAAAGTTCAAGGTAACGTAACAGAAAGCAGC | 3.49 |
| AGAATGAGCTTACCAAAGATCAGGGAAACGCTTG | -0.428 |
| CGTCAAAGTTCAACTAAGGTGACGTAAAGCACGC | 5.89 |
| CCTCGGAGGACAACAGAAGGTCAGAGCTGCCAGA | 1.43 |
| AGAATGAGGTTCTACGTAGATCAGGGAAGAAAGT | -0.126 |
| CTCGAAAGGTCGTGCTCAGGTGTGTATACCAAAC | 3.32 |
| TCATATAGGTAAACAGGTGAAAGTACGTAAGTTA | 0.938 |
| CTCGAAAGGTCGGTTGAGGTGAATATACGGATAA | 3.62 |
| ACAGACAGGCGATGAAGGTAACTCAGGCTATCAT | -0.467 |
| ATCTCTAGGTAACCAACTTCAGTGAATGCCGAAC | -0.17 |
| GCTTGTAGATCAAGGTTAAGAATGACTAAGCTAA | 0.546 |
| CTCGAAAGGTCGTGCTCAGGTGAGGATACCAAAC | 3.15 |
| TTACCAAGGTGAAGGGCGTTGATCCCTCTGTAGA | 0.365 |
| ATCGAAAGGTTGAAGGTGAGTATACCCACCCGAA | 1.06 |
| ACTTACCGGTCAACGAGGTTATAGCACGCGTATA | 2.33 |
| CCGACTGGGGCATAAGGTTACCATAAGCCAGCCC | 0.164 |
| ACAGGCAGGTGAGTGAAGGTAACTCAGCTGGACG | -0.384 |
| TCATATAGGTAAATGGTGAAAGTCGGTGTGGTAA | 0.445 |
| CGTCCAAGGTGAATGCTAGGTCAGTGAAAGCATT | 0.776 |
| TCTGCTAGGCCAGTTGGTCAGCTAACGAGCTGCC | -0.743 |
| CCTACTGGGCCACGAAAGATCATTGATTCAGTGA | -0.421 |
| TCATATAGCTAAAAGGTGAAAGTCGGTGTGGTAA | 0.793 |
| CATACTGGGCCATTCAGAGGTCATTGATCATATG | 4.82 |
| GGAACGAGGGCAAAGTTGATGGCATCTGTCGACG | 1.39 |
| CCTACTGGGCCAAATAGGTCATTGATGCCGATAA | 1.88 |
| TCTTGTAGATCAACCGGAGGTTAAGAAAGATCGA | 0.984 |
| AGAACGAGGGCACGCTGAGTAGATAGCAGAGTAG | 0.201 |
| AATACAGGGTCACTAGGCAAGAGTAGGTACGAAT | 3.06 |
| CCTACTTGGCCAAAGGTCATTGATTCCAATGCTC | 5.46 |
| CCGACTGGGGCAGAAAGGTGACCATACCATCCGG | -0.192 |
| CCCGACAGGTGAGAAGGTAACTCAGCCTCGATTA | -0.281 |
| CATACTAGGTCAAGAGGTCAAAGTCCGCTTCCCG | 6.4 |
| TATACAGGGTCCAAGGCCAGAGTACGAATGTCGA | 0.336 |
| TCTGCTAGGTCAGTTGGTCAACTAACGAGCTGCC | 0.269 |
| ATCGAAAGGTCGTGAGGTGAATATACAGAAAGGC | 3.53 |
| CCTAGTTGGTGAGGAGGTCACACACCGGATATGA | 3.86 |
